Molecular target: Cannabinoid receptor 2 (Homo sapiens, UniProt P34972)
Sequence (P34972 whole entry): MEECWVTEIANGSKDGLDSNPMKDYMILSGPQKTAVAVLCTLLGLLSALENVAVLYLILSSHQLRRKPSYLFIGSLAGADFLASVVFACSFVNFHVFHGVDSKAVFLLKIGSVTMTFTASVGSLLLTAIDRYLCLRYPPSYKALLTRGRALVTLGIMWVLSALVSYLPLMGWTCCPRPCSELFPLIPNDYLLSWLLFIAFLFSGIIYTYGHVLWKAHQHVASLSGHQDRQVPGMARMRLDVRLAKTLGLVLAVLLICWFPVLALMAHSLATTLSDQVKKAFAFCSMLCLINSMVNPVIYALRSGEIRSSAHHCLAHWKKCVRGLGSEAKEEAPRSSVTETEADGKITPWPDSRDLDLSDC
Experiment: Agonist activity at human CB2 receptor expressed in CHO cells assessed as inhibition of forskolin-induced cAMP release after 45 mins
quantity: IC50 (nM)
Your answer is read as nM, so omit the unit and give the number.

// worked examples, IC50 included
[[record]]
smilesinput = "O=C(NC1(C(=O)O)CCCCC1)c1cc2c(n(Cc3ccc(F)cc3)c1=O)CCCCCC2"
quantitativereadout = 9

[[record]]
smilesinput = "O=C(NC1(C(=O)O)CCCC1)c1cc2c(n(CC3CCCCC3)c1=O)CCCCCC2"
quantitativereadout = 14

[[record]]
smilesinput = "O=C(NC1(C(=O)O)CCCCC1)c1cc2c(n(CC3CCCCC3)c1=O)CCCCCC2"
quantitativereadout = 7

[[record]]
smilesinput = "O=C(NC1(C(=O)O)CCCCCCC1)c1cc2c(n(CC3CCCCC3)c1=O)CCCCCC2"
quantitativereadout = 1


Next molecule, IC50 to be filled in.
Lookup: Given the molecule CCCCn1c2c(cc(C(=O)NC3(C(=O)O)CCCCC3)c1=O)CCCCCC2 , what is its reported IC50?
Found: 7

---

Experiment: Oral bioavailability in beagle dog at 10 mg/kg
Type: ADME, organism-based, Canis lupus familiaris
Settings: in vivo
quantity: bioavailability (%)
Your answer is read as %, so omit the unit and give the number.

Lookup: Given the compound CCc1c(C)cc(C(=O)NC2(C(=O)O)CCCCC2)c(=O)n1Cc1ccc(F)cc1 , what is its reported bioavailability?
Found: 18.7

---

Test: Half life in beagle dog at 10 mg/kg, po
Assay type: ADME, organism-based, Canis lupus familiaris
Set-up: dose 10 mg/kg, route oral
Details: in vivo
quantity: half-life

Lookup: Given the molecule CCc1c(C)cc(C(=O)NC2(C(=O)O)CCCCC2)c(=O)n1Cc1ccc(F)cc1 , what is its reported half-life?
Found: 12.8 h

---

# IC50 annotations
Molecular target: Cannabinoid receptor 1 (Homo sapiens)
Assay: Agonist activity at human CB1 receptor expressed in CHO cells assessed as inhibition of forskolin-induced cAMP release after 25 mins
Your answer is read as µM, so omit the unit and give the number.

[[record]]
smilesinput = "O=C(NC1(C(=O)O)CCCCC1)c1cc2c(n(CC3CCCCC3)c1=O)CCCCCC2"
quantitativereadout = 0.076

[[record]]
smilesinput = "O=C(NC1(C(=O)O)CCCC1)c1cc2c(n(CC3CCCCC3)c1=O)CCCCCC2"
quantitativereadout = 0.113


Next compound, IC50 to be filled in.
Lookup: Given the compound O=C(NC1(C(=O)O)CCCCC1)c1cc2c(n(Cc3ccc(F)cc3)c1=O)CCCCCC2 , what is its reported IC50?
Found: 0.514

---

Experiment: Clearance in rat at 3 mg/kg, iv
Type: ADME, organism-based
Set-up: dose 3 mg/kg, route intravenous
Conditions: in vivo
quantity: clearance (mL/min/kg)
Your answer is read as mL/min/kg, so omit the unit and give the number.

Lookup: Given the molecule CCc1c(C)cc(C(=O)NC2(C(=O)O)CCCCC2)c(=O)n1Cc1ccc(F)cc1 , what is its reported clearance?
Found: 11.3

---

Assay: Oral bioavailability in rat at 10 mg/kg
Type: ADME, organism-based
Conditions: in vivo
quantity: bioavailability (%)
Your answer is read as %, so omit the unit and give the number.

Lookup: Given the molecule CCc1c(C)cc(C(=O)NC2(C(=O)O)CCCCC2)c(=O)n1Cc1ccc(F)cc1 , what is its reported bioavailability?
Found: 37.9

---

Target: Cannabinoid receptor 2 (Homo sapiens, UniProt P34972)
Test: Displacement of [3H]-CP55940 from human recombinant CB2 receptor after 60 mins
quantity: pKi
pKi is defined as minus the log10 of a concentration measured in mol/L.

[[record]]
molecule = "O=C(NC1(C(=O)O)CCCCC1)c1cc2c(n(CC3CCCO3)c1=O)CCCCCC2 (configuration not stated)"
quantitativereadout = 6.61

[[record]]
molecule = "CCN1CCCC1Cn1c2c(cc(C(=O)NC3(C(=O)O)CCCCC3)c1=O)CCCCCC2 (configuration not stated)"
quantitativereadout = 5.67

[[record]]
molecule = "COCCn1c2c(cc(C(=O)NC3(C(=O)O)CCCCC3)c1=O)CCCCCC2"
quantitativereadout = 6.53

[[record]]
molecule = "O=C(NC1(C(=O)O)CCCCC1)c1cc2c(n(CC3CCCCC3)c1=O)CCCCCC2"
quantitativereadout = 8.17

[[record]]
molecule = "N#Cc1ccc(Cn2c3c(cc(C(=O)NC4(C(=O)O)CCCCC4)c2=O)CCCCCC3)cc1"
quantitativereadout = 6.84


Lookup: Please provide the recorded pKi for O=C(NC1(C(=O)O)CCCC1)c1cc2c(n(CC3CCCCC3)c1=O)CCCCCC2 , tested on Cannabinoid receptor 2 (Homo sapiens, UniProt P34972).
Found: 7.25

Lookup: Please provide the recorded pKi for CCCCn1c(CC)c(C)cc(C(=O)NC2(C(=O)O)CCCCC2)c1=O , tested on Cannabinoid receptor 2 (Homo sapiens, UniProt P34972).
Found: 6.46

Lookup: Please provide the recorded pKi for CCCCn1c2c(cc(C(=O)NC3(C(=O)O)CCCCC3)c1=O)CCCCCC2 , tested on Cannabinoid receptor 2 (Homo sapiens, UniProt P34972).
Found: 7.25

Lookup: Please provide the recorded pKi for O=C(O)CNC(=O)c1cc2c(n(CC3CCCCC3)c1=O)CCCCCC2 , tested on Cannabinoid receptor 2 (Homo sapiens, UniProt P34972).
Found: 6.75

Lookup: Please provide the recorded pKi for CCCCn1c(CCC)c(Br)cc(C(=O)NC2(C(=O)O)CCCCC2)c1=O , tested on Cannabinoid receptor 2 (Homo sapiens, UniProt P34972).
Found: 6.42

Lookup: Please provide the recorded pKi for CCCc1c(CC)cc(C(=O)NC2(C(=O)O)CCCCC2)c(=O)n1Cc1ccc(F)cc1 , tested on Cannabinoid receptor 2 (Homo sapiens, UniProt P34972).
Found: 6.58

Lookup: Please provide the recorded pKi for O=C(NC1(C(=O)O)CCCCC1)c1cc2c(n(Cc3ccc(F)cc3)c1=O)CCCCCC2 , tested on Cannabinoid receptor 2 (Homo sapiens, UniProt P34972).
Found: 7.80

---

Assay: Volume of distribution at steady state in beagle dog at 3 mg/kg, iv
Assay type: ADME, organism-based, Canis lupus familiaris
Parameters: dose 3 mg/kg, route intravenous
Settings: in vivo, read-out: Vdss
quantity: Vd
Don't forget the unit after the number, please.

Lookup: Given the molecule CCc1c(C)cc(C(=O)NC2(C(=O)O)CCCCC2)c(=O)n1Cc1ccc(F)cc1 , what is its reported Vd?
Found: 1.23 L/kg

---

Assay: Half life in rat at 10 mg/kg, po
Assay type: ADME, organism-based
Set-up: dose 10 mg/kg, route oral
Settings: in vivo
quantity: half-life
Don't forget the unit after the number, please.

Lookup: Given the compound CCc1c(C)cc(C(=O)NC2(C(=O)O)CCCCC2)c(=O)n1Cc1ccc(F)cc1 , what is its reported half-life?
Found: 6.2 h

---

# Ki annotations
Molecular target: Cannabinoid receptor 1 (Homo sapiens, UniProt P21554)
Sequence (P21554 whole entry): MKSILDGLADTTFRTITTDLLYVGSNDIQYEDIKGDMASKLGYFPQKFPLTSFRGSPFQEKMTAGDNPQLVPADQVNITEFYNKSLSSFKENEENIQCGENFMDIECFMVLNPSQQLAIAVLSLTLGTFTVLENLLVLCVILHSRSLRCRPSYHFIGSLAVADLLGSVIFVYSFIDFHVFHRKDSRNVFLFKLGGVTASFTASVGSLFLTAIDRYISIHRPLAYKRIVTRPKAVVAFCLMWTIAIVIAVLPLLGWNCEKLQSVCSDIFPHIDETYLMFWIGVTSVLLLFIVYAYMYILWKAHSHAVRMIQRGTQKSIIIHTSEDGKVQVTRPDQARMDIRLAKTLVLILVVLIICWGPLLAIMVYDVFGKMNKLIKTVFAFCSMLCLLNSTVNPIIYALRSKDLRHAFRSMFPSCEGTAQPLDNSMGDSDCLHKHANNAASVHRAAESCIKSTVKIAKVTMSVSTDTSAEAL
Assay: Displacement of [3H]-CP55940 from human recombinant CB1 receptor after 60 mins
Your answer is read as µM, so omit the unit and give the number.

// worked examples, Ki included
[[record]]
smilesinput = "O=C(O)CNC(=O)c1cc2c(n(CC3CCCCC3)c1=O)CCCCCC2"
quantitativereadout = 1.06

[[record]]
smilesinput = "O=C(NC1(C(=O)O)CCCC1)c1cc2c(n(CC3CCCCC3)c1=O)CCCCCC2"
quantitativereadout = 0.258

[[record]]
smilesinput = "O=C(NC1(C(=O)O)CCCCC1)c1cc2c(n(CC3CCCCC3)c1=O)CCCCCC2"
quantitativereadout = 0.181

[[record]]
smilesinput = "O=C(NC1(C(=O)O)CCCCC1)c1cc2c(n(Cc3ccc(F)cc3)c1=O)CCCCCC2"
quantitativereadout = 0.266

[[record]]
smilesinput = "CCc1c(C)cc(C(=O)NC2(C(=O)O)CCCCC2)c(=O)n1Cc1ccc(F)cc1"
quantitativereadout = 4.07


Lookup: Given the compound N#Cc1ccc(Cn2c3c(cc(C(=O)NC4(C(=O)O)CCCCC4)c2=O)CCCCCC3)cc1 , what is its reported Ki?
Found: 3.95

---

Test: Volume of distribution at steady state in rat at 3 mg/kg, iv
Assay type: ADME, organism-based
Parameters: dose 3 mg/kg, route intravenous
Conditions: in vivo, read-out: Vdss
quantity: Vd (L/kg)
Your answer is read as L/kg, so omit the unit and give the number.

Lookup: Given the compound CCc1c(C)cc(C(=O)NC2(C(=O)O)CCCCC2)c(=O)n1Cc1ccc(F)cc1 , what is its reported Vd?
Found: 1.9

---

Assay: Clearance in beagle dog at 3 mg/kg, iv
Assay type: ADME, organism-based, Canis lupus familiaris
Set-up: dose 3 mg/kg, route intravenous
Settings: in vivo
quantity: clearance
Don't forget the unit after the number, please.

Lookup: Given the compound CCc1c(C)cc(C(=O)NC2(C(=O)O)CCCCC2)c(=O)n1Cc1ccc(F)cc1 [S-777469] , what is its reported clearance?
Found: 6 mL/min/kg
